Test system UniProtKB O42275, IC50 listed for each of the molecules.
Sequence (O42275 whole entry): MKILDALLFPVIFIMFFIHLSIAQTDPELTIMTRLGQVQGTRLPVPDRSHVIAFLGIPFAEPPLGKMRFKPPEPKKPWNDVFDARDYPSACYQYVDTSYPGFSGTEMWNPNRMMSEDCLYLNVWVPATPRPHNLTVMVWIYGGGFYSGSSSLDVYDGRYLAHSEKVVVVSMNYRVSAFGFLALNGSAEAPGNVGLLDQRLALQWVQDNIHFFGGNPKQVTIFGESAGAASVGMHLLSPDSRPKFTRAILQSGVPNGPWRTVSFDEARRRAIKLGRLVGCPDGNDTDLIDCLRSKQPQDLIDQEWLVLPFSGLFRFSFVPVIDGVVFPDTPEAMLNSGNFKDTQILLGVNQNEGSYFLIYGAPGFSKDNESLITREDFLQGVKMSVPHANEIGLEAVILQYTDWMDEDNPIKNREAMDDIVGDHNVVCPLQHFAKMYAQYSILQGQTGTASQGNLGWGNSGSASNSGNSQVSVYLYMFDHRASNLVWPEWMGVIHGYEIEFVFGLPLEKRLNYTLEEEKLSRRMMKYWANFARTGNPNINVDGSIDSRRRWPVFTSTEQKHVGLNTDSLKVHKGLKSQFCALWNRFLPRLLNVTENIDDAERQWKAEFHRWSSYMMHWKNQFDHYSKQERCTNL
Answer in µM, number only, no unit symbol.

COc1ccccc1/C=C1\CNCC2=C1NC(=O)NC2c1ccccc1OC (stereo unspecified)
40.2
O=[N+]([O-])c1cccc(/C=C2\CNCC3=C2NC(=S)NC3c2cccc([N+](=O)[O-])c2)c1 (stereo unspecified)
34.3
O=C1NC2=C(CNC/C2=C\c2ccc(Cl)cc2Cl)C(c2ccc(Cl)cc2Cl)N1 (stereo unspecified)
29.9
O=C1NC2=C(CNC/C2=C\c2cccc([N+](=O)[O-])c2)C(c2cccc([N+](=O)[O-])c2)N1 (stereo unspecified)
28.3
Fc1ccc(/C=C2\CNCC3=C2NC(=S)NC3c2ccc(F)cc2)cc1 (stereo unspecified)
37.2

Exercise: Could you share which IC50 value was measured for S=C1NC2=C(CNC/C2=C\c2ccc(Cl)cc2)C(c2ccc(Cl)cc2)N1 (stereo unspecified) ?
Key: 2.25

Exercise: Which measured IC50 value corresponds to O=C1NC2=C(CNC/C2=C\c2cccc3ccccc23)C(c2cccc3ccccc23)N1 (stereo unspecified) ?
Key: 13.2
